# Hipp-Asp (% conversion) per entry
assay name: Conversion of Hipp-Asp by purified HCPB mutants, 30 minutes, HPLC (Example 17)
Type: biochemical
assay context: enzyme 25 μg/ml; 0.5 mM substrate; 30 minutes at 37° C.
metric name: Hipp-Asp (% conversion)

>>> experimental_result("[G251T,D253R]HCPB: HCPB mutant with G251T and D253R, (His)6-c-myc tag (protein, UniProt P15086 111-417, looked up, variant G251T D253R, (His)6-c-myc tag) Carboxypeptidase B: ATGHSYEKYNKWETIEAWTQQVATENPALISRSVIGTTFEGRAIYLLKVGKAGQNKPAIFMDCGFHAREWISPAFCQWFVREAVRTYGREIQVTELLDKLDFYVLPVLNIDGYIYTWTKSRFWRKTRSTHTGSSCIGTDPNRNFDAGWCEIGASRNPCDETYCGPAAESEKETKALADFIRNKLSSIKAYLTIHSYSQMMIYPYSYAYKLGENNAELNALAKATVKELASLHGTKYTYGPGATTIYPAAGTSRDWAYDQGIRYSFTFELRDTGRYGFLLPESQIRATCEETFLAIKYVASYVLEHLY")
"29%"
>>> experimental_result("[G251N,D253R]: HCPB mutant with G251N and D253R, (His)6-c-myc tag (protein, UniProt P15086 111-417, looked up, variant G251N D253R, (His)6-c-myc tag) Carboxypeptidase B: ATGHSYEKYNKWETIEAWTQQVATENPALISRSVIGTTFEGRAIYLLKVGKAGQNKPAIFMDCGFHAREWISPAFCQWFVREAVRTYGREIQVTELLDKLDFYVLPVLNIDGYIYTWTKSRFWRKTRSTHTGSSCIGTDPNRNFDAGWCEIGASRNPCDETYCGPAAESEKETKALADFIRNKLSSIKAYLTIHSYSQMMIYPYSYAYKLGENNAELNALAKATVKELASLHGTKYTYGPGATTIYPAAGNSRDWAYDQGIRYSFTFELRDTGRYGFLLPESQIRATCEETFLAIKYVASYVLEHLY")
"9.4%"
